Examples of molecules with documented viability, T/C follow.
System: 415267-285-R-J2-PDC complex spheroid viability;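 further: luminescence used as stand-in measure of viable cells; spheroids exposed to compounds for one week before readout; 100% = DMSO vehicle control viability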
Test: Anticancer human tumor 415267-285-R-J2-PDC patient-derived breast carcinoma cell line growth inhibition [POLQ]
Conditions: second compound 0.0316 µM; first compound 3.16 µM; hits give low values
Form entry: value (%) — number only.

Here is how some molecules turned out for viability, T/C.
molecule	viability, T/C [%]
O=C(c1cc(Cc2n[nH]c(=O)c3ccccc23)ccc1F)N1CCN(C(=O)C2CC2)CC1 + Nc1ccc(C#CCN(C(=O)Cc2ncc(C(F)(F)F)cc2C(F)(F)F)c2ccc(F)cc2)nn1	96
CC1COCCN1c1cc(C2(O)CC3CCC(C2)O3)c2cnn(-c3ccn[nH]3)c2n1 (stereo not drawn) + COC1C(OC(N)=O)C(O)C(Oc2ccc3c(O)c(NC(=O)c4ccc(O)c(CC=C(C)C)c4)c(=O)oc3c2C)OC1(C)C	4.27

# context switch: different molecule, same viability, T/C
Which viability, T/C value is on record for CC(C)n1c(=O)n(C)c2cnc3cc(F)c(-c4ccc(OCCCN5CCCCC5)nc4)cc3c21 + Cc1cccc(N(C)C(=O)C2C(O)CCN2c2nc(C)cc(C(F)(F)F)c2C#N)c1 ? 111
